- measurement_setup: human gut metagenome, 24 h, 2 µM; note: call rule not given here
Where a SMILES comes first, the peptide text is derived from it. [ ]: non-standard residue; d: D form. pGlu = O=C1CC[C@@H](C(=O)O)N1; Thz = O=C(O)[C@@H]1CSCN1

- compound: "CNC(=C[N+](=O)[O-])NCCSCc1csc(CN(C)C)n1"
  Bacterial Biotransformation: "Compound NOT metabolized"
- compound: "COc1ccc2[nH]c([S+]([O-])Cc3ncc(C)c(OC)c3C)nc2n1 (centres undefined)"
  Bacterial Biotransformation: "Compound NOT metabolized"
- compound: "O=c1n(CCCN2CCN(c3cccc(Cl)c3)CC2)nc2ccccn12"
  Bacterial Biotransformation: "Compound metabolized"
- compound: "CN1CCc2c(c3ccccc3n2Cc2ccccc2)C1.CN1CCc2c(c3ccccc3n2Cc2ccccc2)C1.O=S(=O)(O)c1cccc2c(S(=O)(=O)O)cccc12"
  Bacterial Biotransformation: "Compound metabolized"
- compound: "Cc1ccc(-c2cc(C(F)(F)F)nn2-c2ccc(S(N)(=O)=O)cc2)cc1"
  Bacterial Biotransformation: "Compound NOT metabolized"
- compound: "CCCCC1=NC2(CCCC2)C(=O)N1Cc1ccc(-c2ccccc2-c2nnn[nH]2)cc1"
  Bacterial Biotransformation: "Compound metabolized"
- compound: "Cc1cn([C@H]2C[C@H](N=[N+]=[N-])[C@@H](CO)O2)c(=O)[nH]c1=O"
  Bacterial Biotransformation: "Compound NOT metabolized"
- compound: "Cc1cc2c(cc1S(N)(=O)=O)S(=O)(=O)CCC2"
  Bacterial Biotransformation: "Compound NOT metabolized"
- compound: "CC(C)OC(=O)C(C)(C)Oc1ccc(C(=O)c2ccc(Cl)cc2)cc1 [FENOFIBRATE]"
  Bacterial Biotransformation: "Compound metabolized"
- compound: "CC(Oc1c(Cl)cccc1Cl)C1=NCCN1 (centres undefined)"
  Bacterial Biotransformation: "Compound NOT metabolized"
- compound: "CC(CN(C)C)CN1c2ccccc2CCc2ccccc21.O=C(O)/C=C\\C(=O)O (centres undefined) [TRIMIPRAMINE MALEATE]"
  Bacterial Biotransformation: "Compound metabolized"
- compound: "CN1C[C@H](C(=O)N[C@]2(C)O[C@@]3(O)[C@@H]4CCCN4C(=O)[C@H](Cc4ccccc4)N3C2=O)C=C2c3cccc4[nH]cc(c34)C[C@H]21.CN1C[C@H](C(=O)N[C@]2(C)O[C@@]3(O)[C@@H]4CCCN4C(=O)[C@H](Cc4ccccc4)N3C2=O)C=C2c3cccc4[nH]cc(c34)C[C@H]21.O=C(O)C(O)C(O)C(=O)O [ERGOTAMINE TARTRATE]"
  Bacterial Biotransformation: "Compound metabolized"
- compound: "CS(=O)(=O)O.O.O.O.O=C1Cc2cc(CCN3CCN(c4nsc5ccccc45)CC3)c(Cl)cc2N1 [ZIPRASIDONE MESYLATE]"
  Bacterial Biotransformation: "Compound NOT metabolized"
- compound: "Fc1ccc([C@@H]2CCNC[C@H]2COc2ccc3c(c2)OCO3)cc1"
  Bacterial Biotransformation: "Compound metabolized"
- compound: "CCCC(=O)Nc1ccc(OCC(O)CNC(C)C)c(C(C)=O)c1 (centres undefined)"
  Bacterial Biotransformation: "Compound metabolized"
- compound: "CC(C)NCC(O)COc1ccc(CCOCC2CC2)cc1 (centres undefined)"
  Bacterial Biotransformation: "Compound NOT metabolized"
- compound: "CCOC(=O)[C@H](CCc1ccccc1)N[C@@H](C)C(=O)N1[C@H](C(=O)O)C[C@@H]2CCC[C@@H]21"
  Bacterial Biotransformation: "Compound metabolized"
- compound: "O=C1CC[C@@H](C(=O)N2CSC[C@H]2C(=O)O)N1 [PIDOTIMOD] ([pGlu]-[Thz]-OH)"
  Bacterial Biotransformation: "Compound NOT metabolized"
- compound: "CCC(COC(=O)c1cc(OC)c(OC)c(OC)c1)(c1ccccc1)N(C)C.O=C(O)/C=C\\C(=O)O (centres undefined)"
  Bacterial Biotransformation: "Compound NOT metabolized"
